Assay: Kinetic solubility determination in PBS
Assay type: physicochemical
Conditions: phosphate buffered saline (PBS 1×), 21 °C, pH 7.4, aqueous buffer, kinetic from dmso stock, PBS 1X pH 7.4, 2.0% DMSO, 24 hour incubation at ambient temperature, read-out: Solubility in aqueous PBS Buffer (1X, pH 7.4), ug/mL
Experimental: Kinetic solubility buffer (phosphate buffered saline (PBS, 1×) at pH 7.4) was prepared from PBS (10×) solution, (Fisher Scientific, Pittsburgh, Pa., USA, 10×), by adding PBS (50 mL, 10×) to approximately water (450 mL HPLC grade). The volume of the solution was then adjusted to 500 mL for a total dilution factor of 1:10 and a final PBS concentration of 1×. The pH of the final solution (PBS (1×)) was measured and found to be 7.4. […]
measuredEndpoint: solubility at 24 h (µg/mL)

INSERT INTO measurements (compound, endpointvalue) VALUES
  ('O=C(O)CCC(=O)N[C@H](C(=O)NCC(=O)N1c2ccccc2C[C@H]1C(=O)NCc1nn[nH]n1)C1CCCC1 [Example A45]', 359);

[I] CC[C@H](C)[C@H](NC(=O)Cc1ccccc1)C(=O)NCC(=O)N1c2ccccc2C[C@H]1C(=O)NCc1csnn1 [Example B2]
[II] CC[C@H](C)[C@H](NC(=O)Cc1ccccc1)C(=O)NCC(=O)N1c2cc(N)ccc2C[C@H]1C(=O)NCc1nn[nH]n1 [Example C20]
Query: Thinking about recorded solubility at 24 h values, which is higher, I or II ? # reply format: chosen label
Result: II
(II: 348 µg/mL, I: 8.4 µg/mL)

###

Target: human Granzyme B (hGzmB) (Homo sapiens, UniProt P10144)
Construct: purchased Froelich Lab, Northshore University Health Systems Research Institute, Evanston, Ill., USA
Sequence (P10144 21-247): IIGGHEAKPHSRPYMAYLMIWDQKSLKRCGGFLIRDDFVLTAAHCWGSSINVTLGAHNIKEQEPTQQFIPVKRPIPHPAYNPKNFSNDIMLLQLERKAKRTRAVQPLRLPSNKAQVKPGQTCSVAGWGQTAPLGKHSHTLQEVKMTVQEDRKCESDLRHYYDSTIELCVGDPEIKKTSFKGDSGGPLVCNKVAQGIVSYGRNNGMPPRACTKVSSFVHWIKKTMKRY
Assay: Human Granzyme B enzymatic inhibition assay (fluorogenic, kinetic)
Type: biochemical
Settings: activity codes, Table 7; read-out: IC50 Activity Range
Method: A specific 2× assay buffer was prepared for the enzyme to be tested (see Table 2 for final 1× assay buffer compositions). If the assay buffer included DTT, it was added immediately prior to running the assay. A 2× enzyme mix was prepared (see Table 3 for enzyme assay conditions) at 80 uL per well. […] An appropriate control was also assessed in full dose response, in duplicate for each assay/plate. […] Plates so prepared were ready for addition of substrate and the subsequent reaction. […]
Structures can show the parent of a compound that is named as a salt.
measuredEndpoint: IC50

Consider the reported IC50 for these compounds:
INSERT INTO results (compound, endpointvalue) VALUES
  ('CC[C@H](C)[C@H](NC(=O)C1CC1C(=O)O)C(=O)NCC(=O)N1c2ccccc2C[C@H]1C(=O)NCc1nn[nH]n1 (single isomer, unassigned) [Example A26-2]', '< 100 nM'),
  ('CC[C@H](C)[C@H](NC(=O)C1CCCCC1C(=O)O)C(=O)NCC(=O)N1c2ccccc2C[C@H]1C(=O)NCc1nn[nH]n1 (single isomer, unassigned) [Example A23-2]', '< 100 nM');

Query: What value of measured IC50 is listed for CC[C@H](C)[C@H](NC(=O)C1CCCCC1C(=O)O)C(=O)NCC(=O)N1c2ccccc2C[C@H]1C(=O)NCc1nn[nH]n1 (single isomer, unassigned) [Example A20-1] ?
Result: < 100 nM

Query: What value of measured IC50 is listed for CC[C@H](C)[C@H](NC(=O)/C=C/C(=O)O)C(=O)NCC(=O)N1c2ccccc2C[C@H]1C(=O)NCc1nn[nH]n1 [Example A36] ?
Result: < 100 nM

Query: What value of measured IC50 is listed for O=C(O)CCC(=O)N1CCC[C@H]1C(=O)NCC(=O)N1c2ccccc2C[C@H]1C(=O)NCc1nn[nH]n1 [Example C28] ?
Result: > 10000 nM

Query: What value of measured IC50 is listed for CC[C@H](C)[C@H](NC(=O)C(C)CC(=O)O)C(=O)NCC(=O)N1c2ccccc2C[C@H]1C(=O)NCc1nn[nH]n1 (single isomer, unassigned) [Example A30-1] ?
Result: < 100 nM

Query: What value of measured IC50 is listed for CCC[C@H](NC(=O)Cc1ccccc1)C(=O)NCC(=O)N1c2ccccc2C[C@H]1C(=O)NCc1nn[nH]n1 [Example C5] ?
Result: 1000 to 10000 nM

Query: What value of measured IC50 is listed for C[C@H](OC(C)(C)C)[C@H](NC(=O)Cc1ccccc1)C(=O)NCC(=O)N1c2ccccc2C[C@H]1C(=O)NCc1nn[nH]n1 [Example C10] ?
Result: > 10000 nM

Query: What value of measured IC50 is listed for O=C(O)CCC(=O)N[C@H](C(=O)NCC(=O)N1c2ccccc2C[C@H]1C(=O)NCc1nn[nH]n1)C1CCCC1 [Example A45] ?
Result: < 100 nM

Query: What value of measured IC50 is listed for CC[C@H](C)[C@H](NC(=O)Cc1ccc(N)cc1)C(=O)NCC(=O)N1c2ccccc2C[C@H]1C(=O)NCc1nn[nH]n1 [Example A8, Hydrochloride] ?
Result: 100 to 1000 nM

Query: What value of measured IC50 is listed for CC[C@H](C)[C@H](NC(=O)C1CC=CCC1C(=O)O)C(=O)NCC(=O)N1c2ccccc2C[C@H]1C(=O)NCc1nn[nH]n1 (single isomer, unassigned) [Example A21-1] ?
Result: < 100 nM

Query: What value of measured IC50 is listed for CC[C@H](C)[C@H](NC(=O)Cc1nn[nH]n1)C(=O)NCC(=O)N1c2ccccc2C[C@H]1C(=O)NCc1nn[nH]n1 [Example A28] ?
Result: < 100 nM

Query: What value of measured IC50 is listed for CC[C@@H](C)[C@H](NC(=O)Cc1ccccc1)C(=O)NCC(=O)N1c2ccccc2C[C@H]1C(=O)NCc1nn[nH]n1 [Example A42] ?
Result: 1000 to 10000 nM

###

test: Kinetic solubility determination in PBS; assay type: physicochemical; conditions: phosphate buffered saline (PBS 1×), 21 °C, pH 7.4, aqueous buffer, kinetic from dmso stock, PBS 1X pH 7.4, 2.0% DMSO, 24 hour incubation at ambient temperature, read-out: Solubility in aqueous PBS Buffer (1X, pH 7.4), ug/mL
Structures can show the parent of a compound that is named as a salt.
# solubility at 24 h values compiled below

INSERT INTO measurements (compound, endpointvalue) VALUES
  ('CC(C)[C@H](NC(=O)Cc1ccccc1)C(=O)NCC(=O)N1c2ccccc2C[C@H]1C(=O)NCc1nn[nH]n1', '> 78 µg/mL'),
  ('CC[C@H](C)[C@H](NC(=O)CCC(=O)O)C(=O)NCC(=O)N1c2ccccc2C[C@H]1C(=O)NCc1nn[nH]n1', '> 386 µg/mL'),
  ('CC[C@H](C)[C@H](NC(=O)C1CCCCC1C(=O)O)C(=O)NCC(=O)N1c2ccccc2C[C@H]1C(=O)NCc1nn[nH]n1 (single isomer, unassigned)', '358 µg/mL');

Now let's try a different one.
Query: What value of measured solubility at 24 h is listed for CC[C@H](C)[C@H](NC(=O)Cc1csc(N)n1)C(=O)NCC(=O)N1c2ccccc2C[C@H]1C(=O)NCc1nn[nH]n1 [Example A10, Hydrochloride] ?
Result: > 443 µg/mL
